biological target: KRas^G12D (Homo sapiens, UniProt P01116, G12D); construct: Biotinylated KRas (corresponding to amino acids 1-169, produced at Accelegan Inc.); biotin (biotinylated); purchased Accelegan Inc; assay: KRas binding assay (TR-FRET tracer displacement), KRas G12D
Sequence (P01116 1-169 isoform P01116-2 G12D): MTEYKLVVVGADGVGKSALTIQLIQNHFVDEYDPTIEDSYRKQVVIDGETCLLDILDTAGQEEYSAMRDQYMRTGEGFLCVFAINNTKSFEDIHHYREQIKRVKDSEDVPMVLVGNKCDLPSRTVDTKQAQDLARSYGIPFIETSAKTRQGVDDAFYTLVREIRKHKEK
Recorded IC50 by entry

Examples from the recorded data:
CCc1c(F)ccc2cc(O)cc(-c3ncc4c(N5CCCn6nncc6C5)nc(OC[C@@]56CCCN5C[C@H](F)C6)nc4c3F)c12
< 2 nM
CCNC(=O)OC[C@@H]1CC[C@]2(COc3nc(N4CCC[C@@](C)(O)C4)c4cnc(-c5cc(O)cc6ccc(F)c(CC)c56)c(F)c4n3)CCCN12
< 2 nM

Attention now turns to another entry.
Given `CCc1c(F)ccc2cc(O)cc(-c3ncc4c(N5CCC[C@@](C)(O)C5)nc(OC[C@]56CCCN5[C@H](CNS(=O)(=O)N(C)C)CC6)nc4c3F)c12` , state its recorded IC50.
< 2 nM

---

target: KRas^G12D (Homo sapiens, UniProt P01116, G12D); construct: Biotinylated KRas (corresponding to amino acids 1-169, produced at Accelegan Inc.); biotin (biotinylated); purchased Accelegan Inc; test: KRas binding assay (TR-FRET tracer displacement), KRas G12D
REPORTED_PROPERTY: IC50 (nM)

Examples from the recorded data:
CCc1c(F)ccc2cc(O)cc(-c3ncc4c(N5CC[C@@H]6C(=O)NC(=O)[C@@H]6CC5)nc(OC[C@@]56CCCN5C[C@H](F)C6)nc4c3F)c12 [Example 614]
805
CCc1c(F)ccc2cc(O)cc(-c3ncc4c(N5CC6CNC(CO)C6C5)nc(OC[C@@]56CCCN5C[C@H](F)C6)nc4c3F)c12 (stereo partly drawn) [Example 875]
17

I = CCc1c(F)ccc2cc(O)cc(-c3ncc4c(N5CCCC6(CC6C#N)C5)nc(OC[C@@]56CCCN5C[C@H](F)C6)nc4c3F)c12 (stereo partly drawn) [Example 851]
II = CCc1c(F)ccc2cc(O)cc(-c3ncc4c(NCc5cc(C(=O)N(C)C)nn5[C@H]5C[C@@H](O)C5)nc(OC[C@@]56CCCN5C[C@H](F)C6)nc4c3F)c12 [Example 678]
III = CCc1c(F)ccc2cc(O)cc(-c3ncc4c(N5C[C@@H]6C[C@H](C5)[C@H](O)C6)nc(OCC56CCCN5CC(F)(F)C6)nc4c3F)c12 (stereo partly drawn) [Example 924]
IV = CCc1c(F)ccc2cc(O)cc(-c3ncc4c(N5CCC(N6C(=O)OC7CN(C(C)=O)CC76)CC5)nc(OC[C@@]56CCCN5C[C@H](F)C6)nc4c3F)c12 (stereo partly drawn) [Example 689]
V = O=S1(=O)NCC2(CCCN(c3nc(OCC45CCCN4CCC5)nc4c(F)c(-c5c6ccccc6cc6[nH]ncc56)ncc34)C2)N1 (stereo not drawn) [Example 758]
Order the records by IC50, with each subsequent value no larger than the one before. Form entry: labels listed in requested order.
IV, II, I, III, V
(IV: 1650 nM, II: 89 nM, I: 36 nM, III: 14 nM, V: 5 nM)

A = CCc1c(F)ccc2cc(O)cc(-c3ncc4c(N5CCCC6(CC=CCO6)C5)nc(OC[C@@]56CCCN5C[C@H](F)C6)nc4c3F)c12 (stereo partly drawn) [Example 589]
B = CCc1c(F)ccc2cc(O)cc(-c3ncc4c(N5CCCCC(S(N)(=O)=O)C5)nc(OC[C@@]56CCCN5C[C@H](F)C6)nc4c3F)c12 (stereo partly drawn) [Example 633]
C = C[C@@]1(O)CCCN(c2nc(OC[C@@]34CCCN3C[C@H](F)C4)nc3c(F)c(-c4c(C5CC5)c(Cl)cc5[nH]ncc45)ncc23)C1 [Example 880]
Arrange these 3 compounds in increasing order of IC50. Form entry: labels listed in requested order.
C, A, B

---

target: KRas^G12C (Homo sapiens, UniProt P01116, G12C); construct: Biotinylated KRas (corresponding to amino acids 1-169, produced at Accelegan Inc.); biotin (biotinylated); purchased Accelegan Inc; assay: KRas binding assay (TR-FRET tracer displacement), KRas G12C; conditions: TR-FRET tracer displacement, KRas G12C
Sequence (P01116 1-169 isoform P01116-2 G12C): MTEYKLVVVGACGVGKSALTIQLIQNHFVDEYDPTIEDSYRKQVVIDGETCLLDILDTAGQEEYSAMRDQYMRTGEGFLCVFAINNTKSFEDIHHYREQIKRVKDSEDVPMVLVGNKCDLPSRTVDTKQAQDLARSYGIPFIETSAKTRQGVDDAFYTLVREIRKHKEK
REPORTED_PROPERTY: IC50 (nM)

Cc1cc2[nH]nnc2c(-c2ncc3c(N4CCCC5(C4)NC(=O)NC5=O)nc(OCC45CCCN4CCC5)nc3c2F)c1C (stereo not shown) [Example 823]
1300

P = CCc1c(F)ccc2cc(O)cc(-c3ncc4c(N5CC=CCC5)nc(OC[C@@]56CCCN5C[C@H](F)C6)nc4c3F)c12 [Example 921]
Q = Cc1cc2[nH]nnc2c(-c2ncc3c(N4CCC[C@@](C)(O)C4)nc(OC[C@@]45CCCN4C[C@H](F)C5)nc3c2F)c1C [Example 821]
When P and Q are compared, which has the higher number for IC50? Label of pick, please.
Q
(Q: 146 nM, P: 2 nM)

---

target: KRas^G12V (Homo sapiens, UniProt P01116, G12V); construct: Biotinylated KRas (corresponding to amino acids 1-169, produced at Accelegan Inc.); biotin (biotinylated); purchased Accelegan Inc; assay: KRas binding assay (TR-FRET tracer displacement), KRas G12V
Sequence (P01116 1-169 isoform P01116-2 G12V): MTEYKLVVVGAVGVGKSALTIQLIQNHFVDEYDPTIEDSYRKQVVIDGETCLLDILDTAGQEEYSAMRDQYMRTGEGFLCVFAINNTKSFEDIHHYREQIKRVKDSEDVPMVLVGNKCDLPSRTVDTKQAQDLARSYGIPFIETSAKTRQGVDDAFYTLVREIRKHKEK
REPORTED_PROPERTY: IC50 (nM)

Examples from the recorded data:
CCc1c(F)ccc2cc(O)cc(-c3ncc4c(N5CCCC6(C5)NC(=O)NC6=O)nc(N5CC(N(C)C)C5)nc4c3F)c12 (stereo not shown)
5
CCc1c(F)ccc2cc(O)cc(-c3ncc4c(N5CC6C(=O)NC(=O)C6C5C)nc(OC[C@@]56CCCN5C[C@H](F)C6)nc4c3F)c12 (stereo partly shown)
3

a = Cc1cc2[nH]nnc2c(-c2ncc3c(N4CCC[C@@](C)(O)C4)nc(OC[C@@]45CCCN4C[C@H](F)C5)nc3c2F)c1C
b = CCc1c(F)ccc2cc(O)cc(-c3ncc4c(N[C@H](C)c5cc(C(=O)N(C)C)nn5C)nc(OC[C@@]56CCCN5C[C@H](F)C6)nc4c3F)c12
When a and b are compared, which has the higher number for IC50? Label of pick, please.
a

---

target: KRas^G12V (Homo sapiens, UniProt P01116, G12V); construct: Biotinylated KRas (corresponding to amino acids 1-169, produced at Accelegan Inc.); biotin (biotinylated); purchased Accelegan Inc; test: KRas binding assay (TR-FRET tracer displacement), KRas G12V
REPORTED_PROPERTY: IC50 (nM)

A = C=C1[C@@H]2CC[C@H]1CN(c1nc(OC[C@@]34CCCN3C[C@H](F)C4)nc3c(F)c(-c4cc(O)cc5ccc(F)c(CC)c45)ncc13)C2
B = CCc1c(F)ccc2cc(O)cc(-c3ncc4c(NCc5cc(C(=O)N(C)C)n([C@H]6C[C@H](O)C6)n5)nc(OC[C@@]56CCCN5C[C@H](F)C6)nc4c3F)c12
When A and B are compared, which has the higher number for IC50? Label of pick, please.
B

---

target: KRas^G12V (Homo sapiens, UniProt P01116, G12V); construct: Biotinylated KRas (corresponding to amino acids 1-169, produced at Accelegan Inc.); biotin (biotinylated); purchased Accelegan Inc; assay: KRas binding assay (TR-FRET tracer displacement), KRas G12V
Recorded IC50 by entry

C[C@@H]1C[C@@H]1c1c(Cl)cc(O)cc1-c1ncc2c(N3C[C@@H]4C[C@H](C3)[C@H](O)C4)nc(OC[C@@]34CCCN3C[C@H](F)C4)nc2c1F (stereo in doubt)
< 2 nM

Given CCc1c(F)ccc2cc(O)cc(-c3ncc4c(N5CC6CCC(C5)C6C#N)nc(OC[C@@]56CCCN5C[C@H](F)C6)nc4c3F)c12 (stereo partly drawn) [Example 559] , state its recorded IC50.
< 2 nM

Given `CCc1c(F)ccc2cc(O)cc(-c3ncc4c(N5CCC[C@@](C)(O)C5)nc(OC[C@@]56CCCN5[C@H](COC(=O)N5CCCC5)CC6)nc4c3F)c12` , state its recorded IC50.
< 2 nM

---

molecular target: KRas^Q61H (Homo sapiens, UniProt P01116, Q61H); construct: Biotinylated KRas (corresponding to amino acids 1-169, produced at Accelegan Inc.); biotin (biotinylated); purchased Accelegan Inc; test: KRas binding assay (TR-FRET tracer displacement), KRas Q61H; details: TR-FRET tracer displacement, KRas Q61H
Sequence (P01116 1-169 isoform P01116-2 Q61H): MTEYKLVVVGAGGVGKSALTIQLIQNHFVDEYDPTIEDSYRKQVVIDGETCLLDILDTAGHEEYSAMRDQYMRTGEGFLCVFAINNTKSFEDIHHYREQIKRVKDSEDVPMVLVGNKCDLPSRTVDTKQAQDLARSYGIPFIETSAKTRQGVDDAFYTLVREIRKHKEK
REPORTED_PROPERTY: IC50 (nM)

P = O[C@@H]1C[C@H]2C[C@@H]1CN(c1nc(OC[C@@]34CCCN3C[C@H](F)C4)nc3c(F)c(-c4cccc5ccccc45)ncc13)C2
Q = Oc1cc2ccccc2c(-c2ncc3c(N4C[C@@H]5C[C@H](C4)[C@H](O)C5)nc(OC[C@@]45CCCN4C[C@H](F)C5)nc3c2F)c1Cl
R = Cc1cc2[nH]nnc2c(-c2ncc3c(N4CCCC5(CNC(=O)N5)C4)nc(OCC45CCCN4CCC5)nc3c2F)c1C (stereo not shown)
Parameters: sort_by = IC50; order = desc; input = items above. Form entry: labels listed in requested order.
R, P, Q
